system-tested: T1, Recombinant human MASP1 enzyme (fragment corresponding to amino acids 297-699, C-terminal His Tag) (human, UniProt P48740 297-699)
T1 sequence: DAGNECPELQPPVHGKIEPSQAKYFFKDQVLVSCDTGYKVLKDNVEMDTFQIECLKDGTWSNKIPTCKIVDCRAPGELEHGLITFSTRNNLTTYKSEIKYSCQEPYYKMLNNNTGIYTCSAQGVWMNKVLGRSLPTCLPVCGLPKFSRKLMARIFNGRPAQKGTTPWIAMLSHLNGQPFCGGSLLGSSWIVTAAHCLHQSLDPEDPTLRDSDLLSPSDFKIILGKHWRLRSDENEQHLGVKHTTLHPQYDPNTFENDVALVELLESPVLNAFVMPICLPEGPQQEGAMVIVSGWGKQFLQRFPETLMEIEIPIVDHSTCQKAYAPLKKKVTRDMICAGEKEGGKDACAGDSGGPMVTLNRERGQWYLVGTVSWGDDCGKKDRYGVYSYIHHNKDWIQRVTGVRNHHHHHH
assay-remarks: cell-based or functional assay
Numbered stars: 1 amine (or outer) side, 2 acyl side, 3 side chain; on linkers, the order of the positions; unused ones are H or OH. Bridge positions count the residues as written; N and C are the ends. Square brackets hold non-standard residues; d marks the D form. Ends that are not written are not given here. * marks the point of attachment. X13 = (2S)‑2‑amino‑3‑(1-methylcyclopropyl)propanoic acid, CC1(C[C@H](N[*:1])C(=O)[*:2])CC1; (3-Chloro-Ph)G = 3-chlorophenylglycine, O=C([C@@H](N[*:1])c1cccc(Cl)c1)[*:2]; Oic = O=C(O)[C@@H]1C[C@@H]2CCCC[C@@H]2N1; Cyclobutanecarbonyl = O=C(C1CCC1)*; aIle = CC[C@@H](C)[C@H](N)C(=O)O; tBuAla = CC(C)(C)C[C@H](N)C(=O)O; Pen = CC(C)(S)[C@H](N)C(=O)O; NMeC = CN[C@@H](CS)C(=O)O; Sar = CNCC(=O)O
For each entry below, report its human MASP1 IC50 value.
Give just the number in nM; leave the unit off.

q: State the recorded human MASP1 IC50 for this entry: AICSRSLPP[(3-Chloro-Ph)G]CIPD-NH2 (disulfide 3-11; N-terminus assumed; SMILES CC[C@H](C)[C@H](NC(=O)[C@H](C)N)C(=O)N[C@H]1CSSC[C@@H](C(=O)N[C@H](C(=O)N2CCC[C@H]2C(=O)N[C@@H](CC(=O)O)C(N)=O)[C@@H](C)CC)NC(=O)[C@H](c2cccc(Cl)c2)NC(=O)[C@@H]2CCCN2C(=O)[C@@H]2CCCN2C(=O)[C@H](CC(C)C)NC(=O)[C@H](CO)NC(=O)[C@H](CCCNC(=N)N)NC(=O)[C@H](CO)NC1=O) [AIC+SRSLPP-((3-Chloro-Ph)G)-C+IPD-NH2]
a: 19

q: Next entry: Cyclobutanecarbonyl-ICSRS[tBuAla]PPI[NMeC]I-NH2 (disulfide 2-10; SMILES CC[C@H](C)[C@H](NC(=O)[C@@H]1CSSC[C@H](NC(=O)[C@@H](NC(=O)C2CCC2)[C@@H](C)CC)C(=O)N[C@@H](CO)C(=O)N[C@@H](CCCNC(=N)N)C(=O)N[C@@H](CO)C(=O)N[C@@H](CC(C)(C)C)C(=O)N2CCC[C@H]2C(=O)N2CCC[C@H]2C(=O)N[C@@H]([C@@H](C)CC)C(=O)N1C)C(N)=O) [(Cyclobutanecarboxylic)-IC+SRS-((tBu)A)-PPI-((N-Me)C)+I-NH2]
a: 18

q: Next entry: [Sar]ICSRSLP[Oic]I[Pen]IP-NH2 (disulfide 3-11; also: tartrate salt) [((N-Me)G)-IC+SRSLP-(Oic)-I-(Pen)+IP-NH2 (Tartrate)]
a: 1.1

q: Next entry: [Sar]ICSRSLPPIC[aIle]PD-NH2 (disulfide 3-11; N-terminus assumed; SMILES CC[C@@H](C)[C@H](NC(=O)[C@@H]1CSSC[C@H](NC(=O)[C@@H](NC(=O)CNC)[C@@H](C)CC)C(=O)N[C@@H](CO)C(=O)N[C@@H](CCCNC(=N)N)C(=O)N[C@@H](CO)C(=O)N[C@@H](CC(C)C)C(=O)N2CCC[C@H]2C(=O)N2CCC[C@H]2C(=O)N[C@@H]([C@@H](C)CC)C(=O)N1)C(=O)N1CCC[C@H]1C(=O)N[C@@H](CC(=O)O)C(N)=O) [((N-Me)G)-IC+SRSLPPIC+(allo-I)-PD-NH2]
a: 14

q: Next entry: [Sar]ICSRS[X13]PPI[Pen]IP-NH2 (disulfide 3-11; N-terminus assumed; SMILES CC[C@H](C)[C@H](NC(=O)CNC)C(=O)N[C@H]1CSSC(C)(C)[C@@H](C(=O)N[C@H](C(=O)N2CCC[C@H]2C(N)=O)[C@@H](C)CC)NC(=O)[C@H]([C@@H](C)CC)NC(=O)[C@@H]2CCCN2C(=O)[C@@H]2CCCN2C(=O)[C@H](CC2(C)CC2)NC(=O)[C@H](CO)NC(=O)[C@H](CCCNC(=N)N)NC(=O)[C@H](CO)NC1=O) [((N-Me)G)-IC+SRS-((2S)-2-amino-3-(1-methylcyclopropyl)propanoic acid)-PPI-(Pen)+IP-NH2]
a: 5.1
